System: Plasmodium falciparum
ASSAY_COMMENT: GSK_TCMDC: Inhibition of Plasmodium falciparum Dd2 in whole red blood cells, using parasite LDH activity as an index of growth. Test compounds present at 2uM
Assay type: functional
METRIC_NAME: Inhibition
Output should be the measured figure followed by the unit it is expressed in.

Use the examples below as a reference point.
Fc1ccc(Nc2ccnc3cc(-c4ccc(CN5CCOCC5)o4)ccc23)c(Cl)c1
100%
O=C(Nc1ccc(OC2CCN(Cc3ccc(F)cc3)CC2)c(Cl)c1)c1ccco1.O=C(O)C(F)(F)F
95%
O=C1OC2(CCN(C(=O)c3ccc(-n4cnnn4)cc3)CC2)CN1Cc1ccc(Cl)c(Cl)c1
70%
Cc1nc(-c2cccc(C(=O)NC3CCC(CCN4CCc5ccc(-c6cccnc6)cc5CC4)CC3)c2)no1.Cl (centres undefined)
4%
Cn1cncc1C(=O)Nc1cccc(-c2ccc(-c3nc4ccccc4[nH]3)s2)c1
25%
Cc1nnnn1-c1ccc(C(=O)N2CCC3(CC2)CN(Cc2ccc(Cl)c(Cl)c2)C(=O)O3)cc1
99%
CCC(=O)c1c(C)n(-c2ncnc3c2nc(C)n3-c2ccc(C)cc2C)c2ccccc12
78%
COc1cc(N)c(Cl)cc1C(=O)NCC1CCN(c2nc(C)cc(C)n2)CC1
95%

# context switch: different compound, same Inhibition
Any idea what Inhibition was measured for c1ccc(Nc2nc(-c3ccccn3)cs2)nc1 ?
93%

----------
Tested on: Plasmodium falciparum
ASSAY_COMMENT: GSK_TCMDC: Inhibition of Plasmodium falciparum Dd2 in whole red blood cells, using parasite LDH activity as an index of growth. Test compounds present at 2uM
Format: functional
Inhibition values for the compounds below.
Enter your answer as a number in %; do not include the unit.

Use the examples below as a reference point.
CC(C)(C)Oc1ccc(NC(=O)c2ccccc2O)cc1
67
COc1ccc(-c2cc(NCc3ccc(-n4ccnc4)cc3)nc(Nc3ccccc3)n2)cc1
79
CC(C)(Oc1c(C2CCN(CCCCNC(=O)c3ccc(-c4ccc(C#N)cc4)cc3)CC2)ccc2c1CCCC2)C(N)=O
82
COc1ccc2ncc(F)c(CCN3CC(O)C(CNCc4ccc5c(n4)NC(=O)CS5)C3)c2c1.Cl (centres undefined)
34
CCC(C)OC(=O)C1=C(C)NC2=C(C(=O)CC(c3ccc(OC)c(OC)c3)C2)C1c1cccc(O)c1 (centres undefined)
98

Any idea what Inhibition was measured for Cl.c1ccc2ncc(CNCCCCCCCCNCc3cnc4ccccc4c3)cc2c1 ?
4

Any idea what Inhibition was measured for CCOc1ccc(NC(=O)c2ccc(CN3CCCN(Cc4cccc(O)c4)CC3)cc2)cc1.O=C(O)C(F)(F)F ?
9

Any idea what Inhibition was measured for COC(=O)c1cc(NC(=O)Nc2ccc(Cn3ncc(N4CCCNCC4)c(Cl)c3=O)cc2)cc(C(=O)OC)c1.O=C(O)C(F)(F)F ?
90

Any idea what Inhibition was measured for CCCCCC(C)NC[C@@H](O)[C@H](Cc1ccccc1)NC(=O)c1cc(NCC)cc(N2CCCCS2(=O)=O)c1.Cl (some centres undefined) ?
79

----------
System: HepG2
ASSAY_COMMENT: GSK_TCMDC: Percent inhibition of human HepG2 cell line. Test compounds present at 10uM.
Assay type: functional
Lab note: compare Inhibition with 9%, writing Satisfied if less and Not satisfied if equal or more.

Before answering, review these 2 worked examples.
CC(C)N1CCN(c2ccc(OCCCCN3CCN(c4cccc(Cl)c4Cl)CC3)cc2Cl)CC1.Cl
Not satisfied
COc1ccccc1NC(=O)Nc1ccc(-c2cccc(-c3nc4ccccc4[nH]3)c2)cc1
Not satisfied

hey, is Inhibition for Cc1cc(OCCN2CCCCC2)ccc1NC(=O)c1cccc2c(=O)n(Cc3ccc(Cl)cc3)cnc12 lower than 9% or not?
Not satisfied

hey, is Inhibition for O=C(Cn1c(CCc2cccc(F)c2F)nc(=O)c2ccccc21)N(CCN1CCCC1)Cc1ccc(-c2ccc(C(F)(F)F)cc2)cc1.O=C(O)C(O)C(O)C(=O)O lower than 9% or not?
Not satisfied

hey, is Inhibition for Cc1cc(=O)c(-c2ccc(Oc3cccc(OC(F)(F)F)c3)cc2)c(C)[nH]1 lower than 9% or not?
Not satisfied

hey, is Inhibition for Cc1cccc2nc(-c3cccc(-c4ccc(NC(=O)Cc5ccon5)cc4)c3)[nH]c12 lower than 9% or not?
Not satisfied

hey, is Inhibition for C=C[C@H]1CN2CC[C@H]1C[C@H]2[C@H](O)c1ccnc2ccc(OC)cc12.O.O=S(=O)(O)O lower than 9% or not?
Satisfied
